Let's go through some recorded IC50 values for SARS-CoV-2 Main Protease (SARS-CoV-2) (UniProt P0DTD1) together.

Previously resolved entries follow.
[
  {
    "compound": "O=C(Cc1cc(Cl)cc(Nc2n[nH]cc2Br)c1)Nc1cncc2ccccc12",
    "IC50": "5.04 µM"
  },
  {
    "compound": "CC(=O)N1CCc2ccc(Cl)cc2C1C(=O)Nc1cncc2ccccc12 (centres undefined)",
    "IC50": "2.85 µM"
  },
  {
    "compound": "O=C(Cc1cc(Cl)cc(Nc2ccc(Br)cc2O)c1)Nc1cncc2ccccc12",
    "IC50": "3.89 µM"
  },
  {
    "compound": "O=C(Cc1cccc(Cl)c1)Nc1noc2ccccc12",
    "IC50": "> 99.5 µM"
  },
  {
    "compound": "CC(C)(C)c1ccc(N(C(=O)c2ccns2)C(C(=O)NCCc2cccc(F)c2)c2cccnc2)cc1 (centres undefined)",
    "IC50": "51.1 µM"
  },
  {
    "compound": "O=C(Cc1cc(Cl)cc(Nc2ccc3cc(Br)ccc3c2)c1)Nc1cncc2ccccc12",
    "IC50": "2.1 µM"
  },
  {
    "compound": "Cc1cc(N)ncc1NC(=O)Cc1cccc(Cl)c1",
    "IC50": "> 99.5 µM"
  },
  {
    "compound": "O=C(Nc1cncc2ccccc12)C1(CCC2CC2)CCOc2ccc(Cl)cc21 (centres undefined)",
    "IC50": "40.7 µM"
  },
  {
    "compound": "COC(=O)[C@@H]1C[C@@H](NC(=O)C(c2cccnc2)N(C(=O)c2cocn2)c2ccc(C(C)(C)C)cc2)CN1C(=O)OC(C)(C)C (stereo in doubt)",
    "IC50": "6.82 µM"
  },
  {
    "compound": "CC(C)(C)c1ccc(N(C(=O)c2cn[nH]c2)C(C(=O)NCCc2cccc(F)c2)c2cccnc2)cc1 (centres undefined)",
    "IC50": "5.83 µM"
  }
]

Find the measured IC50 of O=C(Cc1cc(Cl)cc(NC23CC4CC(CC(O)(C4)C2)C3)c1)Nc1cncc2ccccc12 with SARS-CoV-2 Main Protease (SARS-CoV-2) (UniProt P0DTD1) as test system.
2.87 µM

Provide SARS-CoV-2 Main Protease (SARS-CoV-2) (UniProt P0DTD1) IC50 reading for CC1(C)Cc2cccc(OCCNC(=O)c3cc(=O)[nH]c4cc(F)ccc34)c2O1 .
> 99.5 µM
